- Test target: Sulfhydryl oxidase 1 (Homo sapiens)
- Measurement description: inhibition of human sulfhydryl oxidase QSOX1 – biochemical, HyperBlu H2O2 luminescence, HTS, primary screen (AID 1347420); further: values above 100% were filed as inconclusive
- Run conditions: recombinant QSOX1, HyperBlu H2O2 luminescence; at 12.5 µM; stronger effect = higher value; active = any value above zero
Among all 1,300 compounds or so, about 980 (75%) were called active. Not shown: some 4% with an inconclusive outcome. The list shows a part of the results.
Observable: inhibition (%)
Give bare numbers, in %.

Batch: inhibition for all items listed.
1. COc1ccccc1CNCCCCCCNCCCCCCCCNCCCCCCCNc1ccccc1OC
2. C#CC(N)CCC(=O)O (stereo not given)
3. NC(Cc1ccc(Cl)cc1)C(=O)O (stereo not given)
4. CC(C)NC[C@H](O)COc1cccc2ccccc12
5. O=c1[nH]ccc2c(O)cccc12
6. CN1C2CCCC1CC(NC(=O)c1nn(C)c3ccccc13)C2 (stereo not given)
7. COC(=O)[C@@H](N)Cc1ccc(O)c(O)c1

1: 0.8; 2: 13.5; 3: 6.1; 4: -5.6; 5: 41.9; 6: 8.4; 7: 48.2

Batch: inhibition for all items listed.
1. O=c1oc(Cl)c(Cl)c2ccccc12
2. C=CC(N)CCC(=O)O (stereo not given)
3. CCc1ccc2c(-c3cccc(Cl)c3)nc(=O)n(CC)c2n1
4. O=C1NCC2(CCN(CCc3ccccc3)CC2)O1
5. Cc1nnc(SCC2=C(C(=O)O)N3C(=O)[C@@H](NC(=O)Cn4cnnn4)[C@H]3SC2)s1
6. COC(=O)c1c(C)[nH]c(C)c1C(=O)c1ccccc1Cc1ccccc1
7. CC1CCN(CC[C@H]2CCCN2S(=O)(=O)c2cccc(O)c2)CC1

[15, -9.5, 20, 10.5, 10.4, -0.5, 2.8]
